Measured values drawn from paper PMC10261210 for this set.

# assay_info: plasma pharmacokinetics (LC–MS/MS, noncompartmental analysis)
# Type: in vivo, human
# study_conditions: human, plasma, po, 400 mg, 400 mg QW oral, cycle 1 day 22, plasma, n 3; read-out: AUC168, geometric mean (%CV)
# Method: In addition, for patients on Q2D schedules, predose or trough samples were collected on days 9 and 15 (Q2D dosing) or days 8 and 15 (QW dosing) to evaluate time to steady state. […] Terminal half-life was calculated based on the equation: t1/2 = ln2/kel (kel = elimination rate constant determined by linear regression analysis of selected time points in the apparent terminal phase of the log plasma concentration versus time curve).
endpoint_label: AUC (µg·h/mL)
Note: unit µg·h/mL is implicit; provide only the numeric part.

Input C[C@@H](NC(=O)c1ncnc(N)c1Cl)c1ncc(C(=O)Nc2cc(C(F)(F)F)c(Cl)cn2)s1 . Output AUC: 193
